# Tested on: SK-MEL-28 melanoma
# Protocol details: NCI-60 one-dose screen, 48 h
# Measurement setup: 10 µM
Compounds without any hit were thinned out: in the full panel of roughly 83,000, 20% have a hit. Calls of active or inactive are those of the source. The calls were made as follows: active = growth percent below 10; inactive = the rest.
Pick one and only one: active, inactive

Worked set:
{"Compound": "O=C(CCNC(=O)c1nc(-c2ccccc2)n(-c2ccc(Cl)cc2)n1)NO", "Category": "inactive"}
{"Compound": "COc1ccc(-c2onc(N)c2-c2cc(OC)c3c(c2)OCO3)cc1", "Category": "inactive"}
{"Compound": "O=C(O)c1cn(C2CC2)c2cc(N3CCN(C(=O)c4cc(-c5ccc(Cl)cc5)nc5ccccc45)CC3)c(F)cc2c1=O", "Category": "inactive"}
{"Compound": "CCCCC/C=C/C/C=C/CCCCCCCC1=NC(C)(C)CN1C(C)C", "Category": "inactive"}
{"Compound": "COc1ccc(/C=C2\\CCCC3=C2NC(N)=NC3c2ccc(OC)cc2)cc1 (configuration not stated)", "Category": "inactive"}

## Task Hi, sorry to bother you, what did the test record for CCN(CC)CCCOc1cccc2c1C(=O)c1cccc(OCCCN(CC)CC)c1C2=O ?
## Result inactive

## Task Cool, now C1CN(CC2CCC(CN3CCOCC3)O2)CCO1 (configuration not stated)
## Result inactive

## Task Cool, now COc1cc(C2CC(c3cc(Cl)c(C)cc3O)=NN2c2ccc(S(N)(=O)=O)cc2)cc(OC)c1OC (configuration not stated)
## Result inactive

## Task Cool, now CCOC(=O)/C(=C(\C)N)C1CC(=O)NC1=O (configuration not stated)
## Result inactive

## Task Cool, now Nc1cc(Br)c(-c2nn3c(CCC(=O)c4nc5ccccc5[nH]4)nnc3s2)c(Br)c1
## Result inactive

## Task Cool, now Nc1ncc(-c2cnn(C3CCNCC3)c2)cc1-c1nc2ccccc2o1
## Result active

## Task Cool, now COc1cc(C(=O)/C=C/c2c[nH]c3ccccc23)cc(OC)c1OC
## Result inactive

----------
# Test system: OVCAR-5 ovarian
# Protocol details: NCI-60 one-dose screen, 48 h (100 = growth as untreated, 0 = no growth, -100 = all killed)
# Measurement setup: 10 µM
Compounds without any hit were thinned out: in the full panel of roughly 83,000, 20% have a hit.
# growth per record follows
Respond numerically; units are % and should not be typed.

{"Compound": "Cn1cnc([N+](=O)[O-])c1/C=C1\\Oc2ccc(Br)cc2C1=O", "growth, %": 105}
{"Compound": "COc1cc(-c2nn(-c3cccc(NC(=O)CCN4CCN(c5ccccc5)CC4)c3)cc2-c2ccncc2)ccc1Cl", "growth, %": 47.5}
{"Compound": "C=CCn1c(SCC(=O)Nc2ccc(C(=O)/C=C/c3cc(OC)c(OC)c(OC)c3)cc2)nnc1-c1cc(-c2ccc(Cl)cc2)nc2ccccc12", "growth, %": 97.6}
{"Compound": "COc1cc(-c2nn(-c3cccc(NC(=O)NCCNC(=O)c4ccccc4)c3)cc2-c2ccncc2)ccc1Cl", "growth, %": 33}
{"Compound": "CSc1nc(S(C)(=O)=O)nc2[nH]c(=O)[nH]c12", "growth, %": 96.3}
{"Compound": "COc1cc2cc(Oc3ccc(NC(=O)Nc4ccc(C(F)(F)F)cc4)cc3)c(C)nc2cc1OC", "growth, %": 92.9}
{"Compound": "c1ccc(/C(=N\\Nc2ccc3ccccc3n2)c2ccccn2)cc1", "growth, %": 51.1}
{"Compound": "CC(C)[N+]1(C)C2CC[C@@H]1CC(OC(=O)C(CO)c1ccccc1)C2 (stereo partly drawn)", "growth, %": 108}

## Task Fill blank: measured growth of the compound CC(=O)OC1C=CC(OC(C)=O)O1 (stereo not drawn) is ____.
## Result 101

----------
# Tested on: MDA-MB-435 melanoma
# Protocol details: NCI-60 one-dose screen, 48 h
# Measurement setup: 10 µM
About 83,000 compounds went through this panel and 20% of them were active in at least one assay; those are over-represented in the sample as a whole. The source made the active and inactive calls. The calls were made as follows: active = growth percent below 10; inactive = the rest.
Pick one and only one: active, inactive

{"Compound": "COc1ccc(Cl)cc1Nc1nc(C(F)(F)F)ccc1C(=O)N/N=C/c1cc(OC)c(OC)c(OC)c1", "Category": "inactive"}
{"Compound": "CCOC(=O)Cn1c(=O)c2sc3ncccc3c2n2nnc(-c3ccccc3)c12", "Category": "inactive"}
{"Compound": "Cc1ccc(-c2c3c(N)nc(-c4cccnc4)nc3nc3c2c(C)nn3-c2ccccc2)cc1", "Category": "inactive"}
{"Compound": "CC[C@@H]1NC(=O)[C@H]([C@H](O)[C@H](C)C/C=C/c2ccc(CN3C(=O)CCCC3=O)cc2)N(C)C(=O)[C@H](C(C)C)N(C)C(=O)[C@H](CC(C)C)N(C)C(=O)[C@H](CC(C)C)N(C)C(=O)[C@@H](C)NC(=O)[C@H](C)NC(=O)[C@H](CC(C)C)N(C)C(=O)[C@H](C(C)C)NC(=O)[C@H](CC(C)C)N(C)C(=O)CN(C)C1=O", "Category": "inactive"}
{"Compound": "Cc1ccc2nc(Cl)c(-c3nc4ccccc4o3)cc2c1", "Category": "inactive"}
{"Compound": "O=C(CCNC(=O)c1nc(-c2ccccc2)n(-c2ccc(Cl)cc2)n1)NO", "Category": "inactive"}

## Task Hi, sorry to bother you, what did the test record for O=C(N/N=C/c1ccc([N+](=O)[O-])cc1)c1ccccc1Nc1cccc(C(F)(F)F)c1 ?
## Result inactive

## Task Cool, now NS(=O)(=O)c1ccc(N2N=C(c3ccccc3)CCC2=O)cc1
## Result inactive

## Task Cool, now O=C(CNc1nnc(-c2cccnc2SCc2ccccc2)s1)Nc1nc(Cl)cc(Cl)n1
## Result inactive

## Task Cool, now Nc1ccc(-c2cccs2)cc1NC(=O)c1ccc(CCCC(=O)Nc2ccc(C3CC3N)cc2)cc1 (centres undefined)
## Result inactive

## Task Cool, now Cc1cc(CSc2ccccc2C(=O)N2CC=C(c3ccccc3)CC2)on1
## Result inactive

## Task Cool, now Nc1ccccc1NC(=O)c1ccc(CCCC(=O)Nc2ccc(C3CC3N)cc2)cc1 (centres undefined)
## Result inactive

## Task Cool, now CC(=O)[C@H]1CC[C@]2(C)[C@@H]1CC[C@@H]1[C@@]3(C)CC(CCC#N)(CCC#N)C(=O)C(C)(C)[C@@H]3CC[C@]12C
## Result inactive

----------
# Tested on: SNB-75 CNS
# Protocol details: NCI-60 one-dose screen, 48 h (100 = growth as untreated, 0 = no growth, -100 = all killed)
# Measurement setup: 10 µM
About 83,000 compounds went through this panel and 20% of them were active in at least one assay; those are over-represented in the sample as a whole.
Everything with growth lower than 90% is n; everything else, including exactly 90%, is y.

Worked set:
{"Compound structure string": "COc1cc(OC)c2c(=O)c(O)c(-c3ccccc3)oc2c1", "Category": "n"}
{"Compound structure string": "CC[C@@H]1NC(=O)[C@H]([C@H](O)[C@H](C)C/C=C/c2ccc(CN3C(=O)CCCC3=O)cc2)N(C)C(=O)[C@H](C(C)C)N(C)C(=O)[C@H](CC(C)C)N(C)C(=O)[C@H](CC(C)C)N(C)C(=O)[C@@H](C)NC(=O)[C@H](C)NC(=O)[C@H](CC(C)C)N(C)C(=O)[C@H](C(C)C)NC(=O)[C@H](CC(C)C)N(C)C(=O)CN(C)C1=O", "Category": "n"}

## Task Check if growth >= 90% (inclusive). Item: O=C1c2ccccc2C(=O)c2c1ccc(C(Br)Br)c2[N+](=O)[O-]
## Result y

----------
# Test system: NCI-H460 lung
# Protocol details: NCI-60 one-dose screen, 48 h (100 = growth as untreated, 0 = no growth, -100 = all killed)
# Measurement setup: 10 µM
# Experimental: Growth inhibition of the NCI-H460 human Non-Small Cell Lung tumor cell line is measured as a screen for anti-cancer activity. Cells are grown in 96 well plates and exposed to the test compound for 48 hours. Compounds are tested at a single concentration, which is 10^-5 M for most compounds. The reported endpoint is percent growth (GI% or GIPRCNT), where numbers from 0 - 100% represent growth inhibition, and numbers from -100% - 0 represent cell death. […]
About 83,000 compounds went through this panel and 20% of them were active in at least one assay; those are over-represented in the sample as a whole.
Endpoint label: growth (%)
Respond numerically; units are % and should not be typed.

Worked set:
{"Molecule": "COc1ccc(-c2cc(-c3ccccc3)nc(SCCCCCCC(=O)NO)n2)cc1", "growth [%]": 36}
{"Molecule": "OC[C@H]1OC([S-])[C@H](O)[C@@H](O)[C@@H]1O.[Au+] (some centres undefined)", "growth [%]": 110}
{"Molecule": "CCN(CC)CCCC(C)N=C(C1=C(C(=NC(C)CCCN(CC)CC)c2cccc(OC)c2)C(=O)NC1=O)c1cccc(OC)c1 (centres undefined)", "growth [%]": -47.1}
{"Molecule": "O=C1/C=C/[C@@H](O)[C@@H]2C[C@@H](O)C[C@H]2/C=C/CCC[C@H](CCc2ccc(C(F)(F)F)cc2)O1", "growth [%]": 9.42}
{"Molecule": "COC1=CC(=O)OC(c2ccc(OC)cc2)C1 (centres undefined)", "growth [%]": 109}
{"Molecule": "CCCC1(CN2c3ccccc3Sc3ccc(Cl)cc32)CCN(CC)C1 (centres undefined)", "growth [%]": -100}
{"Molecule": "O=C(N/N=C/c1cc([N+](=O)[O-])ccc1O)c1cccc2ccccc12", "growth [%]": 20.7}
{"Molecule": "NS(=O)(=O)Oc1ccc(NC(=O)C2CCCCCC2)cc1", "growth [%]": 106}
{"Molecule": "COc1ccc(N(C)c2ncnc3occ(C)c23)cc1", "growth [%]": 2.75}
{"Molecule": "C#C[C@]1(O)CCC2C3CCc4cc(OC5CCCC5)ccc4C3CC[C@@]21C (some centres undefined)", "growth [%]": 49.8}

## Task Fill blank: measured growth of the molecule O=[N+]([O-])c1cccc(/C=N/NC(=S)NC23CC4CC(CC(C4)C2)C3)c1 is ____.
## Result 56.4

## Task Cool, now CC(C)c1ccc(C(C)C(=O)N(CC2=C(C(C)c3ccccn3)c3ccccc3C2)C(C)C)cc1 (centres undefined)
## Result 23.1

## Task Cool, now Cc1cc(CCNC=O)c(C)c2c1sc1ccccc12
## Result 104

## Task Cool, now CCOC(=O)C(C)(c1ccccc1)c1ccccc1
## Result 106
